Listing: %Inh of selected compounds
system: STK35; conditions: concentration: 1 μM, replicates: in singlicate; n = 1;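 note: KINOMEscan kinase panel screen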
READOUT: %Inh (%)

[[record]]
compound = "CC(C)(C)c1ccc(C(=O)Nc2cn3cc(-c4ccccc4)ccc3n2)cc1"
readout = "%Inh"
readout_value = 47

[[record]]
compound = "Cc1cccc(-c2nc(Nc3ccc4c(cnn4C)c3)c3ccccc3n2)n1 [GW876731]"
readout = "%Inh"
readout_value = 0

[[record]]
compound = "O=C1NC(=O)C(c2ccccc2)=C1Nc1cccc(O)c1 [SB-390534]"
readout = "%Inh"
readout_value = 2

[[record]]
compound = "Nc1ncnc2c1ncn2-c1cccc(F)c1 [SKF-97560]"
readout = "%Inh"
readout_value = 0

[[record]]
compound = "CCn1c(-c2nonc2N)nc2ccccc21 [SB-693162/GW549034]"
readout = "%Inh"
readout_value = 0

[[record]]
compound = "O=C(NCc1cccs1)c1cc(C(=O)c2c(Cl)cccc2Cl)c[nH]1 [GW823670]"
readout = "%Inh"
readout_value = 0

[[record]]
compound = "Nc1n[nH]c2ncc(-c3ccccc3)cc12 [SB-517081]"
readout = "%Inh"
readout_value = 0

[[record]]
compound = "Nc1n[nH]c2nnc(-c3ccccc3)c(-c3ccccc3)c12 [GW554060]"
readout = "%Inh"
readout_value = 0

[[record]]
compound = "CCC(=O)c1c(-c2ccccc2)c2cc(Cl)ccc2c(=O)n1Cc1ccc(C(=O)O)cc1"
readout = "%Inh"
readout_value = 0

[[record]]
compound = "CCc1nc(-c2cccc(C)c2)c(-c2ccncc2)s1"
readout = "%Inh"
readout_value = 0

[[record]]
compound = "Nc1ncnc2c1ncn2-c1ccc(Cl)cc1 [AH2635]"
readout = "%Inh"
readout_value = 0

[[record]]
compound = "CCc1ccc(-c2ccc3c(c2)-c2nn(C)cc2S(=O)(=O)N3C)cc1"
readout = "%Inh"
readout_value = 0

[[record]]
compound = "Cc1ccccc1COc1cc(-n2cnc3cc(Cl)ccc32)sc1C(N)=O [GW813349]"
readout = "%Inh"
readout_value = 0


---

tested on: HIPK3; settings: concentration: 1 μM, replicates: in singlicate; n = 1
READOUT: %Inh (%)

[[record]]
test_smiles = "Cc1nnc(-c2ccc(C)c(-c3ccc(C(=O)O)cc3)c2)o1"
readout_value = 7

[[record]]
test_smiles = "Nc1ncnc2c1ncn2-c1cccc2ccccc12"
readout_value = 0

[[record]]
test_smiles = "Nc1ncnc2c1ncn2-c1cccc(F)c1"
readout_value = 14

[[record]]
test_smiles = "COc1cc2nccc(Nc3ccc(OCc4ccc(NC(C)=O)cc4)cc3)c2cc1OC.Cl"
readout_value = 0

[[record]]
test_smiles = "COc1cc2nccc(Nc3cccc(Oc4ccccc4)c3)c2cc1OC.Cl"
readout_value = 0

[[record]]
test_smiles = "COc1cccc(C2=C(Nc3cccc(C(=O)O)c3)C(=O)NC2=O)c1"
readout_value = 1

[[record]]
test_smiles = "CCCNC(=O)Nc1ccc(Oc2ncnc3ccn(C)c23)cc1"
readout_value = 14

[[record]]
test_smiles = "Nc1ncnc2c1ncn2-c1ccc(Cl)cc1"
readout_value = 0

[[record]]
test_smiles = "COc1cccc(-n2cnc3c(N)ncnc32)c1"
readout_value = 26

[[record]]
test_smiles = "COc1cc2ncn(-c3cc(OCc4ccc(S(C)(=O)=O)cc4)c(C(N)=O)s3)c2cc1OC"
readout_value = 2

[[record]]
test_smiles = "O=C(Nc1ccc2c(c1)OCO2)NC1CCN(c2ccnc(NCc3ccc(F)cc3)n2)CC1"
readout_value = 9

[[record]]
test_smiles = "CCCC(=O)Nc1n[nH]c2ncc(-c3cccc4ccccc34)cc12"
readout_value = 11

[[record]]
test_smiles = "O=C(NCCNc1ccnc(Nc2ccc(F)cc2)n1)Nc1ccc2c(c1)OCO2"
readout_value = 9

[[record]]
test_smiles = "CCC(=O)c1c(-c2ccccc2)c2cc(Cl)ccc2c(=O)n1Cc1cc(S(C)(=O)=O)n(CC(N)=O)n1"
readout_value = 0

[[record]]
test_smiles = "COc1cc(Nc2ccnc3ccc(C(F)(F)F)cc23)cc(OC)c1OC"
readout_value = 18

[[record]]
test_smiles = "COc1cc2ncn(-c3cc(OCc4ccncc4Br)c(C(N)=O)s3)c2cc1OC"
readout_value = 15


---

tested on: BMPR1A; conditions: concentration: 1 μM, replicates: in singlicate; n = 1
Output Criterion met for records whose %Inh is lower than 10%, Criterion not met for records at or above 10%.

[[record]]
test_smiles = "O=C(Nc1n[nH]c2nc(-c3ccccc3)c(Cl)cc12)C1CC1"
target_desc = "BMPR1A"
group = "Criterion met"

[[record]]
test_smiles = "CC(C)(C)c1ccc(C(=O)Nc2cn3cc(-c4ccccc4)ccc3n2)cc1"
target_desc = "BMPR1A"
group = "Criterion met"

[[record]]
test_smiles = "COc1cc(OC)cc(-c2cc3cnc(N)nc3nc2NC(=O)NC(C)(C)C)c1"
target_desc = "BMPR1A"
group = "Criterion not met"

[[record]]
test_smiles = "COc1cc2ncn(-c3cc(OCc4ccncc4)c(C(N)=O)s3)c2cc1OC"
target_desc = "BMPR1A"
group = "Criterion met"

[[record]]
test_smiles = "CN1C(=O)C(Nc2ccccc2)=C(c2ccccc2)C1=O"
target_desc = "BMPR1A"
group = "Criterion not met"

[[record]]
test_smiles = "O=c1cc(N2CCOCC2)nc2n(Cc3ccc(F)c(Cl)c3)ccn12"
target_desc = "BMPR1A"
group = "Criterion met"

[[record]]
test_smiles = "CCC(=O)c1c(-c2ccccc2)c2cc(Cl)ccc2c(=O)n1Cc1cc(S(C)(=O)=O)n(CC(N)=O)n1"
target_desc = "BMPR1A"
group = "Criterion met"

[[record]]
test_smiles = "COc1cc2nccc(Nc3ccc(OCc4ccc(NC(C)=O)cc4)cc3)c2cc1OC.Cl"
target_desc = "BMPR1A"
group = "Criterion not met"

[[record]]
test_smiles = "Nc1nc(N)c2nc(-c3ccccc3)[nH]c2n1"
target_desc = "BMPR1A"
group = "Criterion met"

[[record]]
test_smiles = "COc1cccc(C2=C(N(C)c3ccccc3)C(=O)NC2=O)c1"
target_desc = "BMPR1A"
group = "Criterion met"

[[record]]
test_smiles = "CCn1c(-c2ccoc2)nc2cnccc21"
target_desc = "BMPR1A"
group = "Criterion met"

[[record]]
test_smiles = "COc1ccc(-c2cc3c(C)nc(N)nc3n([C@H]3CC[C@H](O)CC3)c2=O)cn1"
target_desc = "BMPR1A"
group = "Criterion not met"

[[record]]
test_smiles = "Cc1c(Cn2c(C)nn3c(=O)cc(N4CCO[C@H](C)C4)nc23)cccc1C(F)(F)F"
target_desc = "BMPR1A"
group = "Criterion not met"

[[record]]
test_smiles = "Cc1nnc(-c2ccc(C)c(-c3ccc(C(=O)O)cc3)c2)o1"
target_desc = "BMPR1A"
group = "Criterion met"

[[record]]
test_smiles = "O=C(NCCNc1ccnc(Nc2ccc(F)cc2)n1)Nc1ccc2c(c1)OCO2"
target_desc = "BMPR1A"
group = "Criterion met"

[[record]]
test_smiles = "Nc1ncnc2c1ncn2-c1cccc(F)c1"
target_desc = "BMPR1A"
group = "Criterion met"

[[record]]
test_smiles = "COc1cc2ncn(-c3cc(OCCCc4ccccc4)c(C(N)=O)s3)c2cc1OC"
target_desc = "BMPR1A"
group = "Criterion met"

[[record]]
test_smiles = "CCS(=O)(=O)c1ccc(OC)c(Nc2ncc(-c3ccc(F)cc3)o2)c1.Cl"
target_desc = "BMPR1A"
group = "Criterion not met"

[[record]]
test_smiles = "Nc1n[nH]c2ncc(-c3ccccc3)cc12"
target_desc = "BMPR1A"
group = "Criterion met"


---

test system: GAK; conditions: concentration: 1 μM, replicates: in singlicate; n = 1
Parameter %Inh: see the listing below.
READOUT: %Inh (%)

[[record]]
compound = "CCn1c(-c2nonc2N)nc2ccccc21"
measure_unit = "%"
readout_value = 0

[[record]]
compound = "COC(=O)c1c(-c2ccccc2)c2cc(Br)ccc2c(=O)n1Cc1ccc(NC(=O)CCC(=O)O)cc1"
measure_unit = "%"
readout_value = 0

[[record]]
compound = "COc1ccc(CNC(=O)NC2CCN(c3ccnc(Nc4ccc(F)cc4)n3)C2)cc1 (centres unmarked)"
measure_unit = "%"
readout_value = 19

[[record]]
compound = "COc1ccc(-c2cc3c(C)nc(N)nc3n([C@H]3CC[C@H](O)CC3)c2=O)cn1"
measure_unit = "%"
readout_value = 0

[[record]]
compound = "C[C@@H]1CC[C@H](C(=O)NC2CCCCC2)CN1c1cc(-c2ccc3c(N)n[nH]c3c2)nc(N)n1"
measure_unit = "%"
readout_value = 17

[[record]]
compound = "CCC(=O)c1c(-c2ccccc2)c2cc(Cl)ccc2c(=O)n1Cc1cc(S(C)(=O)=O)n(CC(N)=O)n1"
measure_unit = "%"
readout_value = 0

[[record]]
compound = "Nc1ncnc2c1ncn2-c1cccc2ccccc12"
measure_unit = "%"
readout_value = 0

[[record]]
compound = "COc1cc(Nc2ccnc3ccc(C(F)(F)F)cc23)cc(OC)c1OC"
measure_unit = "%"
readout_value = 86

[[record]]
compound = "CCS(=O)c1ccc(-c2coc3ccc(-c4nnc(C)o4)cc23)cc1 (centres unmarked)"
measure_unit = "%"
readout_value = 0

[[record]]
compound = "CCCNC(=O)Nc1ccc(Oc2ncnc3ccn(C)c23)cc1"
measure_unit = "%"
readout_value = 3

[[record]]
compound = "Cc1nnc(-c2ccc3ncn(-c4ccc(S(C)=O)cc4)c3c2)o1 (centres unmarked)"
measure_unit = "%"
readout_value = 2

[[record]]
compound = "O=C(NCCNc1ccnc(Nc2ccc(F)cc2)n1)Nc1ccc2c(c1)OCO2"
measure_unit = "%"
readout_value = 14

[[record]]
compound = "Cl.c1ccc(Cn2cnc3cc(Nc4ncnc5ccccc45)ccc32)cc1"
measure_unit = "%"
readout_value = 0

[[record]]
compound = "CN1C(=O)C(Nc2ccccc2)=C(c2ccccc2)C1=O"
measure_unit = "%"
readout_value = 0

[[record]]
compound = "Fc1cccc(CSc2nnc(-c3ccc4c(c3)CCO4)o2)c1"
measure_unit = "%"
readout_value = 3

[[record]]
compound = "O=C(Nc1n[nH]c2cc(-c3ccccc3F)ccc12)C1CC1"
measure_unit = "%"
readout_value = 0

[[record]]
compound = "CCc1nc(-c2cccc(C)c2)c(-c2ccncc2)s1"
measure_unit = "%"
readout_value = 49

[[record]]
compound = "COc1cc(OC)cc(-c2cc3cnc(N)nc3nc2NC(=O)NC(C)(C)C)c1"
measure_unit = "%"
readout_value = 0

[[record]]
compound = "COc1cc2ncn(-c3cc(OCc4ccncc4Br)c(C(N)=O)s3)c2cc1OC"
measure_unit = "%"
readout_value = 58

[[record]]
compound = "Cc1ccc(Oc2ccc(Nc3ncnc4cc[nH]c34)cc2C)cn1"
measure_unit = "%"
readout_value = 10

[[record]]
compound = "FC(F)(F)c1ccc(-c2ncn(CCCN3CCOCC3)c2-c2ccncc2)cc1"
measure_unit = "%"
readout_value = 0

[[record]]
compound = "Cc1cccc(-c2nc(Nc3ccc4c(cnn4C)c3)c3ccccc3n2)n1"
measure_unit = "%"
readout_value = 19

[[record]]
compound = "COc1ccc(-c2coc3ccc(-c4nnc(SCc5cccc(C#N)c5)o4)cc23)cc1"
measure_unit = "%"
readout_value = 12

[[record]]
compound = "CCC(=O)c1c(-c2ccccc2)c2cc(Cl)ccc2c(=O)n1Cc1cc(C(=O)NC2CC2)n(C)n1"
measure_unit = "%"
readout_value = 1

[[record]]
compound = "CCC(=O)c1c(-c2ccccc2)c2cc(Cl)ccc2c(=O)n1Cc1ccc(C(=O)O)cc1"
measure_unit = "%"
readout_value = 0

[[record]]
compound = "Cc1ccc(-c2ccc3c(ccc4sc5c(c43)NC[C@@H](C)N=C5N(C)C)n2)cn1"
measure_unit = "%"
readout_value = 0

